molecular target: T1, human NK1 receptor (human, UniProt P25103 1-407); test: competition vs [3H]substance P, membranes of hNK1-transfected CHO cells
T1 construct: whole, on cells; Assayed as membrane preparations of transfected CHO cells; also called hNK1; human neurokinin-1 receptor
T1 sequence (P25103 whole entry): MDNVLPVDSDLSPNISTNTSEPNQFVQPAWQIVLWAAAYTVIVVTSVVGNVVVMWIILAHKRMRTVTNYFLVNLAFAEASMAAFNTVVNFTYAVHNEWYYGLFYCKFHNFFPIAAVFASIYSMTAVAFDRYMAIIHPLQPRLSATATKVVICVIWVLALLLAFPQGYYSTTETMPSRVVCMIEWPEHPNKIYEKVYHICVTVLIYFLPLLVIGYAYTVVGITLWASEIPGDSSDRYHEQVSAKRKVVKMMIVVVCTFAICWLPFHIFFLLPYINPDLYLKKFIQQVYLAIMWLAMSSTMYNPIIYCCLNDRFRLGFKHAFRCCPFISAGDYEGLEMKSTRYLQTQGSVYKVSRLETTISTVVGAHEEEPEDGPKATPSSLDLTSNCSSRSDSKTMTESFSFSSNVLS
Square brackets hold non-standard residues; d marks the D form. * marks the point of attachment. NH(3,5-(CF3)2-benzyl) = FC(F)(F)c1cc(CN*)cc(C(F)(F)F)c1; OBzl(3,5-(CF3)2) = FC(F)(F)c1cc(CO*)cc(C(F)(F)F)c1; NMe(benzyl) = CN(Cc1ccccc1)*; NHBn = c1ccc(CN*)cc1; OBn = c1ccc(CO*)cc1
Each record is given Fulfilled if its reported Ki is strictly below 2 nM. Records at or above 2 nM are given Not fulfilled.

For orientation, consider the following solved cases.
H-Y[dA]GFPLW-{NMe(benzyl)} (also: TFA salt, TFA salt; also called TY010) [H-Tyr-D-Ala-Gly-Phe-Pro-Leu-Trp-NMe-Bzl]    Fulfilled
H-Y[dA]GFPLW-{NH(3,5-(CF3)2-benzyl)} (also: TFA salt, TFA salt; also called TY012) [H-Tyr-D-Ala-Gly-Phe-Pro-Leu-Trp-NH-3,5-Bzl(CF3)2]    Fulfilled
H-Y[dA]GFPLW-{OBzl(3,5-(CF3)2)} (also: TFA salt, TFA salt; also called TY001) [H-Tyr-DAla-Gly-Phe-Pro-Leu-Trp-O-3,5-Bzl(CF3)2]    Fulfilled
H-Y[dA]GFPLW-OBn (also: TFA salt, TFA salt; also called TY011) [H-Tyr-DAla-Gly-Phe-Pro-Leu-Trp-O-Bzl]    Not fulfilled

Attention now turns to another entry.
Problem: Lab note: confirm whether the reported Ki for this binder is below 2 nM, equality not counting. binder: H-Y[dA]GFPLW-NHBn (also: TFA salt, TFA salt; also called TY008) [H-Tyr-DAla-Gly-Phe-Pro-Leu-Trp-NH-Bzl]
Solution: Not fulfilled
